All values here come from the supplement of paper PMC11208160.

So I've got a bunch of sequences here, and I need their recombinant barcode read abundance (log10) values.
test: recombinant barcode read abundance after kanamycin selection (control-corrected) (log10(CPM+1)); higher = more efficient recombination; sequences stand for … in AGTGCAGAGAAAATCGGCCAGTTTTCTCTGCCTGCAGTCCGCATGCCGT…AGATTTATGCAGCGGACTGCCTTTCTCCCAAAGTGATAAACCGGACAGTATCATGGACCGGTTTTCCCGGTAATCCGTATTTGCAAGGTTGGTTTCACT; site = the 11-nt target
Lab note: write the figure by itself, no unit.

Query: Retrieve recombinant barcode read abundance (log10) measured for TAACGTACTTGGGTTCTAACCTGTTGCAT (site TAACTTACTAT) and print it.
Response: 0.103

Query: Given the sequence GGTACTCCTTGGGTTCTAACCTGTTGCGT (site GGTACTCCTAC) , write its reported recombinant barcode read abundance (log10).
Response: 0.913

Query: Tell me its recombinant barcode read abundance (log10) given GACTTGCCTTGGGTTCTAACCTGTTGCAT (site GACTTCCCTAT) as the entry.
Response: 0.113

Query: # return recorded recombinant barcode read abundance (log10) for input AATTAAGCTTGGGTTCTAACCTGTTGCCT (site AATTGAGCTAG)
Response: 0.088

Query: Tell me its recombinant barcode read abundance (log10) given TATAGAACTTGGGTTCTAACCTGTTGCCT (site TATAAAACTAG) as the entry.
Response: 0.119

Query: Please report the measured recombinant barcode read abundance (log10) for CCAAGCCCTTGGGTTCTAACCTGTTGCCT (site CCAAGCCCTAG)
Response: 0.142

Query: Identify the reported recombinant barcode read abundance (log10) for the following entry. GACGGATCTTGGGTTCTAACCTGTTGCCT (site GACGGATCTAT)
Response: 0.0859

Query: Read off the recorded recombinant barcode read abundance (log10) for TAGCATACTTGGGTTCTAACCTGTTGCCG (site TAGCATACTAG)
Response: 0.271

Query: Identify measured recombinant barcode read abundance (log10) corresponding to AGTTGGCCTTGGGTTCTAACCTGTTGCGA (site AGTTGGCCTTC)
Response: 0.45

Query: Tell us which recombinant barcode read abundance (log10) value is on record for TACATTCCTTGGGTTCTAACCTGTTGCCT (site GACATTCCTAG)
Response: 0.179

###

assay: recombinant UMI read abundance after kanamycin selection (control-corrected) (log10(CPM+1)); higher = more efficient recombination; extreme values may be limits of the assay; sequences stand for … in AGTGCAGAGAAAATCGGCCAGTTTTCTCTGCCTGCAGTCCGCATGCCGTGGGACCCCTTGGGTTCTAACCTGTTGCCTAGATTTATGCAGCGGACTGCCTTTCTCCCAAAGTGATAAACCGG…AGGTTGGTTTCACT; site = the 11-nt donor
Returns satisfied if the recorded recombinant UMI read abundance (log10) is greater than or equal to 0.006, and not satisfied otherwise.

Query: # check: recombinant UMI read abundance (log10) of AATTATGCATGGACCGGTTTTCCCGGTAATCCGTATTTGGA (site AATTATGCTTA) is greater than or equal to 0.006
Response: satisfied

Query: Could you verify whether the entry GTATAGACATGGACCGGTTTTCCCGGTAATCCGTATTTGCC (site GTATAGACTGG) shows recombinant UMI read abundance (log10) of no less than 0.006?
Response: satisfied

Query: Is recombinant UMI read abundance (log10) for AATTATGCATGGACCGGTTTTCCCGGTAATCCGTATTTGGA (site AATTATGCTTG) at or above 0.006?
Response: not satisfied

Query: Assess whether reported recombinant UMI read abundance (log10) for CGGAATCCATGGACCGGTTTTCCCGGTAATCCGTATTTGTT (site CGGAAGCCTAT) sits at 0.006 or higher.
Response: not satisfied

Query: Check this sequence for recombinant UMI read abundance (log10) at or above 0.006: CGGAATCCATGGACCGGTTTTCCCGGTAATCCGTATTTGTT (site CGGAATACTAA)
Response: not satisfied

Query: Can ATTGAGCCATGGACCGGTTTTCCCGGTAATCCGTATTTGGT (site ATTGAGGCTAC) be said to have recombinant UMI read abundance (log10) at or above 0.006?
Response: satisfied

Query: hey, is recombinant UMI read abundance (log10) for this one >= 0.006? TCGTCACCATGGACCGGTTTTCCCGGTAATCCGTATTTGTA (site TCGTCACCTTA)
Response: satisfied

Query: Form field: recombinant UMI read abundance (log10) at least 0.006? Entry: GCATACTCATGGACCGGTTTTCCCGGTAATCCGTATTTGCA (site CCATACTCTTG)
Response: satisfied

Query: Quick check: does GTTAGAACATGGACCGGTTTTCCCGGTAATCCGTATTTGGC (site GTTAGACCTGC) have recombinant UMI read abundance (log10) greater than or equal to 0.006?
Response: not satisfied

Query: Is reported recombinant UMI read abundance (log10) greater than or equal to 0.006 here: CGTTAGACATGGACCGGTTTTCCCGGTAATCCGTATTTGGG (site CGTTAGACTCC)
Response: satisfied

Query: Is it the case that GGAGATTCATGGACCGGTTTTCCCGGTAATCCGTATTTGTT (site GCAGATTCTAA) has recombinant UMI read abundance (log10) reaching or exceeding 0.006?
Response: not satisfied

Query: Check this sequence for recombinant UMI read abundance (log10) at or above 0.006: GTAGCCTCATGGACCGGTTTTCCCGGTAATCCGTATTTGTT (site GTAGCCTCTAA)
Response: satisfied

Query: Would you say ACTAGTGCATGGACCGGTTTTCCCGGTAATCCGTATTTGGG (site ACTAGTGCTCC) shows recombinant UMI read abundance (log10) at minimum 0.006?
Response: satisfied

Query: Can ACTAGTGCATGGACCGGTTTTCCCGGTAATCCGTATTTGTT (site ACTAGTGCTAG) be said to have recombinant UMI read abundance (log10) at or above 0.006?
Response: satisfied

Query: Please indicate if the recorded recombinant UMI read abundance (log10) for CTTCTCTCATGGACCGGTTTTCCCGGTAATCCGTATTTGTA (site CTTCTATCTTA) meets or exceeds 0.006.
Response: satisfied

Query: Has GGTACGTCATGGACCGGTTTTCCCGGTAATCCGTATTTGAT (site GGTACGTCTAT) a recorded recombinant UMI read abundance (log10) greater than or equal to 0.006?
Response: satisfied

Query: I'd appreciate it if you could say whether ACTTCTACATGGACCGGTTTTCCCGGTAATCCGTATTTGTG (site ACCTCTACTCA) has recombinant UMI read abundance (log10) at least equal to 0.006.
Response: not satisfied

Query: Threshold query (recombinant UMI read abundance (log10) >= 0.006) on TTGGCGTCATGGACCGGTTTTCCCGGTAATCCGTATTTGTC (site TTGGCGTCTGA)
Response: satisfied

Query: Quick check, recombinant UMI read abundance (log10) >= 0.006? GTTTTTCCATGGACCGGTTTTCCCGGTAATCCGTATTTGGT (site GTTATTCCTAC)
Response: not satisfied

Query: recombinant UMI read abundance (log10) >= 0.006 for CGGTATCCATGGACCGGTTTTCCCGGTAATCCGTATTTGTC (site CGGAATCCTAA) ?
Response: not satisfied

Query: Could you verify whether the entry ATAAGGCCATGGACCGGTTTTCCCGGTAATCCGTATTTGAG (site ATAAGGCCTCT) shows recombinant UMI read abundance (log10) of no less than 0.006?
Response: satisfied

Query: Threshold query (recombinant UMI read abundance (log10) >= 0.006) on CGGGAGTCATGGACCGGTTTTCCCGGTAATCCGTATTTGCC (site CGGGAGTCTGG)
Response: satisfied

Query: Exam item: decide whether the reported recombinant UMI read abundance (log10) for CCGAAAGCATGGACCGGTTTTCCCGGTAATCCGTATTTGAT (site CCGAAAGCTAT) is at least 0.006.
Response: satisfied

Query: Check the entry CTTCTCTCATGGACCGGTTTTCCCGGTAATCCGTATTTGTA (site GTTCTCTCTTA) : does recombinant UMI read abundance (log10) equal or exceed 0.006?
Response: satisfied

Query: Answer whether recombinant UMI read abundance (log10) of ACGACTACATGGACCGGTTTTCCCGGTAATCCGTATTTGAC (site AAGACTACTGT) is greater than or equal to 0.006.
Response: satisfied

Query: Would you say AGTAAGACATGGACCGGTTTTCCCGGTAATCCGTATTTGCA (site AGGAAGACTTG) shows recombinant UMI read abundance (log10) at minimum 0.006?
Response: satisfied

Query: // inclusive: recombinant UMI read abundance (log10) at least 0.006? input: GTTTGTTCATGGACCGGTTTTCCCGGTAATCCGTATTTGAT (site GTTTGTTCTAT)
Response: satisfied

Query: Is recombinant UMI read abundance (log10) at least 0.006? Consider ATAACGCCATGGACCGGTTTTCCCGGTAATCCGTATTTGAG (site ATAACGCCTCT)
Response: satisfied

Query: Would you say AACGTGTCATGGACCGGTTTTCCCGGTAATCCGTATTTGAC (site AATGTGTCTGT) shows recombinant UMI read abundance (log10) at minimum 0.006?
Response: not satisfied

Query: Determine whether measured recombinant UMI read abundance (log10) meets or exceeds 0.006 for GTAGTCGCATGGACCGGTTTTCCCGGTAATCCGTATTTGCA (site GTAGTCGCTAG)
Response: satisfied

Query: Assess whether reported recombinant UMI read abundance (log10) for GTGAAGCCATGGACCGGTTTTCCCGGTAATCCGTATTTGGG (site GGGAAGCCTCC) sits at 0.006 or higher.
Response: satisfied

Query: Check if recombinant UMI read abundance (log10) >= 0.006 (inclusive). Item: ACCTAAACATGGACCGGTTTTCCCGGTAATCCGTATTTGGG (site ACCTAGACTCC)
Response: satisfied

Query: Does recombinant UMI read abundance (log10) meet or surpass 0.006 for TCCAATTCATGGACCGGTTTTCCCGGTAATCCGTATTTGCA (site TCCAATTCTCG) ?
Response: not satisfied

Query: For this sequence, is measured recombinant UMI read abundance (log10) 0.006 or higher? TGGCCGACATGGACCGGTTTTCCCGGTAATCCGTATTTGGC (site TGGCCGGCTGC)
Response: satisfied

Query: Answer whether recombinant UMI read abundance (log10) of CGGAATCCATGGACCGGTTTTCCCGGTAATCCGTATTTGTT (site CGGAAACCTAA) is greater than or equal to 0.006.
Response: satisfied

Query: Dear colleague, could you confirm whether GATAAGCCATGGACCGGTTTTCCCGGTAATCCGTATTTGCC (site GATAAGCCTGG) has recombinant UMI read abundance (log10) at or above 0.006?
Response: not satisfied
